Numbers sourced from PubChem BioAssay (NCI).

# System: RXF 393 renal
# EXPERIMENT NOTES: NCI-60 one-dose screen, 48 h
# CONDITION DESCRIPTION: 10 µM unless noted
About 83,000 compounds went through this panel and 20% of them were active in at least one assay; those are over-represented in the sample as a whole. Active and inactive are the calls of the source. The calls were made as follows: active = growth percent below 10; inactive = the rest.
Assign a class; possible classes are yes (1) (active), no (0) (inactive)

Lookup: Any idea what this test logged for CC(C)(C)N1CCC1CN (centres undefined) ?
Found: no (0)

Lookup: Any idea what this test logged for CCOc1cc2ncc(C#N)c(Nc3ccc(F)c(Cl)c3)c2cc1NC(=O)CC1CCSS1 (centres undefined) ?
Found: yes (1)

Lookup: Any idea what this test logged for `COc1ccc(/C=C/C(=O)c2cc(O)ccc2O)cc1` ?
Found: no (0)

Lookup: Any idea what this test logged for COc1ccc(SC2c3cc(OC)c(OC)cc3Oc3nc(N)c(C#N)c(N)c32)cc1 (centres undefined) ?
Found: yes (1)

Lookup: Any idea what this test logged for CC(C)CSc1nc(N)nc2c1ncn2C1OC(CO)C(O)C1O (centres undefined) ?
Found: no (0)

Lookup: Any idea what this test logged for Cc1ccc(NC(=O)C2CCC(CN3CCN(C)CC3)CC2)cc1Nc1nccc(-c2cccnc2)n1 (centres undefined) ?
Found: no (0)

Lookup: Any idea what this test logged for CCOc1cc2c(cc1OCC)C(c1cc(OC)c(O)cc1Cl)NCC2 (centres undefined) ?
Found: no (0)

Lookup: Any idea what this test logged for CC1CCNC(C)C1 (centres undefined) ?
Found: no (0)

Lookup: Any idea what this test logged for `O=S(=O)(Nc1ccc(NS(=O)(=O)c2ccccc2)c(Cl)c1)c1ccccc1` ?
Found: no (0)

Lookup: Any idea what this test logged for `Nc1ccc(-c2cc3c(Nc4ccc(Oc5cccc(C(F)(F)F)c5)c(Cl)c4)ncnc3s2)cc1` ?
Found: no (0)

Lookup: Any idea what this test logged for CC[N+](CC)=c1sc2c(s1)C(c1ccc(Cl)cc1)Oc1ccc(Cl)cc1-2 (centres undefined) ?
Found: no (0)

Lookup: Any idea what this test logged for `O=C1c2ccccc2C(=O)c2c1ccc1[nH]c(-c3cccs3)nc21` ?
Found: no (0)

Lookup: Any idea what this test logged for `CC(C)(C)CC(C)(C)c1ccc(OCCOCC[N+](C)(C)Cc2ccccc2)cc1` ?
Found: yes (1)

Lookup: Any idea what this test logged for `COc1cc2c(cc1O)CC[C@@H]1[C@@H]2CC[C@]2(C)[C@@H](NCCN(C)C)CC[C@@H]12` ?
Found: yes (1)

Lookup: Any idea what this test logged for `CN1CCN(Cc2ccc(NC(=O)c3cncc(C#Cc4cncn5ccnc45)c3)cc2C(F)(F)F)CC1` ?
Found: no (0)

Lookup: Any idea what this test logged for `O=C1c2cc3c(cc2-c2c1c1ccc(F)cc1c(=O)n2CCCNCCO)OCO3` ?
Found: yes (1)

Lookup: Any idea what this test logged for `O=C(CN1C(=O)/C(=C/c2ccc(Cl)cc2)SC1=S)NCCCN1CCOCC1` ?
Found: no (0)

Lookup: Any idea what this test logged for CC(=O)O[C@H]1C(=O)[C@@]2(C)[C@H]([C@H](OC(=O)c3ccccc3)[C@]3(O)C[C@H](OC(=O)[C@H](OC(=O)CCC(=O)OC4CCC(S/N=C(N)/N=C(\N)N(C)C)CC4)[C@@H](NC(=O)c4ccccc4)c4ccccc4)C(C)=C1C3(C)C)[C@]1(OC(C)=O)CO[C@@H]1C[C@@H]2O (some centres undefined) ?
Found: no (0)

Lookup: Any idea what this test logged for `CSc1nc(Nc2cccc(NC(=O)CCl)c2)c(C#N)c(-c2cccc([N+](=O)[O-])c2)n1` ?
Found: no (0)

* * *

# Tested on: MOLT-4 leukemia
# EXPERIMENT NOTES: NCI-60 one-dose screen, 48 h
# CONDITION DESCRIPTION: 10 µM unless noted
About 83,000 compounds went through this panel and 20% of them were active in at least one assay; those are over-represented in the sample as a whole. Calls of active or inactive are those of the source. Rule for the calls: active = growth percent below 10; inactive = the rest.
Assign a class; possible classes are T for active, F for inactive

Lookup: Any idea what this test logged for `C#CCOc1ccc2ncnc(NCc3cccc(NC(=O)CCl)c3)c2c1` ?
Found: T

Lookup: Any idea what this test logged for `CCC(=O)c1ccc(Cl)s1` ?
Found: F

Lookup: Any idea what this test logged for CCN1CCC2(CC1)NC(=O)c1c(c3ccc(Cl)c(Cl)c3n1C)C2C#N (stereo not given) ?
Found: F

Lookup: Any idea what this test logged for `COc1ccc(C(=O)COc2ccc(/C=C3\Oc4ccc(OC)cc4C3=O)cc2)cc1` ?
Found: F

Lookup: Any idea what this test logged for `Clc1ccc2c(NCCNc3nc(N4CCCCC4)nc4ccccc34)ccnc2c1` ?
Found: T

Lookup: Any idea what this test logged for `CCOc1nc(-c2ccccc2)cc2c(O)c(C(=O)O)[nH]c(=O)c12` ?
Found: F

Lookup: Any idea what this test logged for `CC1=C[C@H]2c3c(c(O)c(O)c4oc5ccccc5c(=O)c34)[C@H](c3cc(O)c(O)c4oc5ccccc5c(=O)c34)[C@H]2C(C)(C)C1` ?
Found: T

Lookup: Any idea what this test logged for `CC(C)(C)c1cc(/C=N\NC(=O)/C=C/C=C/c2ccc3c(c2)OCO3)c(O)c(C(C)(C)C)c1` ?
Found: F

Lookup: Any idea what this test logged for `COc1ccc(Nc2cc(C)nc(N3CCN(c4ccnc5cc(Cl)ccc45)CC3)n2)cc1` ?
Found: F

Lookup: Any idea what this test logged for `Cn1cc(C(=O)c2nc(-c3c[nH]c4ccc(F)cc34)no2)c2cc(F)ccc21` ?
Found: F

* * *

# System: NCI-H460 lung
# EXPERIMENT NOTES: NCI-60 one-dose screen, 48 h
# CONDITION DESCRIPTION: 10 µM unless noted
About 83,000 compounds went through this panel and 20% of them were active in at least one assay; those are over-represented in the sample as a whole. Active and inactive are the calls of the source. How the source made its calls: active means growth percent below 10; inactive means the rest.
Assign a class; possible classes are label 1 = active, label 0 = inactive

Lookup: Any idea what this test logged for `O=[N+]([O-])c1ccccc1/C=N\NC(=S)N/N=C/c1ccccc1[N+](=O)[O-]` ?
Found: label 0

Lookup: Any idea what this test logged for `CCOC(=O)c1sc2nc(-c3cccc(OC)c3)nc(N3CCOCC3)c2c1C` ?
Found: label 0

Lookup: Any idea what this test logged for `COc1ccc(C(=O)COc2ccc(/C=C3\Oc4ccc(OC)cc4C3=O)cc2)cc1` ?
Found: label 0

Lookup: Any idea what this test logged for `COc1ccc(C(=O)COc2ccc(/C=C3\COc4ccc(OC)cc4C3=O)cc2)cc1` ?
Found: label 0

Lookup: Any idea what this test logged for `Cc1nn(-c2cc(=O)[nH]c3ccc(Cl)cc23)c(N)c1C#N` ?
Found: label 0

Lookup: Any idea what this test logged for `O=C(CCCCC(=O)N/N=C\c1ccccc1O)N/N=C\c1ccccc1O` ?
Found: label 0

Lookup: Any idea what this test logged for `CNC(=O)c1cc(Oc2ccc(NC(=O)Nc3ccc(Cl)c(OC(F)(F)F)c3)c(F)c2)ccn1` ?
Found: label 0

Lookup: Any idea what this test logged for `Nc1ccn(-c2ccc(Br)cc2)c(=O)n1` ?
Found: label 0

Lookup: Any idea what this test logged for `COc1cc(CNc2oc(-c3ccccc3)c(-c3ccccc3)c2C#N)cc(CN2CCN(C)CC2)c1O` ?
Found: label 0

Lookup: Any idea what this test logged for `COc1cc(-c2nc(C(=O)NCC(=O)NO)nn2-c2ccc(Cl)cc2)cc(OC)c1OC` ?
Found: label 0

Lookup: Any idea what this test logged for C=C(C)C1CC(O)C2(C)CCCC3C2C1CC(C)C3(C)CC/C(C)=C/C(O)C1CCC(=O)c2c(OC)cc(OC)cc21 (centres undefined) ?
Found: label 0

Lookup: Any idea what this test logged for `COc1ccc(-n2nc(C)c3c(Nc4ccc(NC(=O)Nc5c(Cl)cccc5Cl)cc4)ncnc32)cc1` ?
Found: label 0

Lookup: Any idea what this test logged for `CC(=O)OC[C@H]1O[C@H](OC(C)=O)[C@H](NC(=O)/C=C/CCl)[C@@H](OC(C)=O)[C@@H]1OC(C)=O` ?
Found: label 0

Lookup: Any idea what this test logged for `CCCCCCCCCCCCC[N+](C)(C)Cc1ccccc1` ?
Found: label 1

Lookup: Any idea what this test logged for COc1cccc2c1C(=O)c1c(O)c3c(c(O)c1C2=O)C[C@](O)(C(=O)CO)C[C@H]3O[C@@H]1C[C@@H](NC(=O)CCCN(C)C2(c3ccc(F)cc3)CC3CCC2C3)[C@H](O)[C@@H](C)O1 (some centres undefined) ?
Found: label 1

Lookup: Any idea what this test logged for `O=C1c2cc3c(cc2-c2c1c1cc(F)c(F)cc1c(=O)n2CCCn1ccnc1)OCO3` ?
Found: label 1

Lookup: Any idea what this test logged for `O=C1/C(=C/c2ccccc2)SC(=S)N1CCc1ccc(O)cc1` ?
Found: label 0

Lookup: Any idea what this test logged for `CC1=C[C@H]2c3c(c(O)c(O)c4oc5c(C)cccc5c(=O)c34)[C@H](c3cc(O)c(O)c4oc5c(C)cccc5c(=O)c34)[C@H]2C(C)(C)C1` ?
Found: label 1

Lookup: Any idea what this test logged for `Cc1ccc(O)c(N2C(=NCc3ccco3)NS(=O)(=O)c3cnccc32)c1` ?
Found: label 0
